System: 2Sb-muMax20 (muMax20 with two 1,3-bis(methyl)benzene Cys staples, A13C/A17C and Q88C/A92C, C-terminal Lys)
Experiment: PBM 8-mer E-score (E-score (rank enrichment, -0.5 to 0.5)); higher = stronger preferential binding
In all, about 33,000 sequences were measured (“E-score (rank enrichment, -0.5 to 0.5)”: median about -0.0028, highest 2% from about 0.23 on). For the sample, the highest values were picked, then their nearest neighbours and some sequences at random.
Could you label it Met if measured PBM 8-mer E-score is 0.2 or higher, and Not met otherwise?

residues	category
TATATCCA	Not met
CTGTACAA	Not met
ACTTTATC	Not met
ATGCGAGC	Not met
CAAATTTC	Met
CGTCCACC	Not met
AAGACACG	Met
GACCGACC	Not met
ATTGGTTC	Not met
AAGTTTAC	Not met
CCCCGGCG	Not met
GCTGGCGA	Not met
ATTGTTTC	Met
ACCGCTAT	Not met
GGCTTCAC	Not met
CACCTCAA	Not met
TAACGTTA	Not met
ATCGCTAC	Not met
GGCTTCGA	Not met
AAAAATTA	Not met
CCCGCCTC	Not met
TGGTACAA	Met
CGAAATTA	Not met
TTGTACAA	Met
ATTAACAA	Not met
ATAAACAA	Not met
AGAAATTA	Not met
AGTTTATC	Not met
CAATGGGA	Not met
AAGTATTA	Not met
ATTAACAC	Met
CAGAAAAA	Not met
ATGCGAGG	Met
GATCGAGA	Not met
ATAAAAAT	Not met
GTGTACAA	Met
AATACTCA	Not met
AACATGCT	Not met
AAGACACA	Not met
CAGACACG	Not met
ATAAACAC	Not met
ATTAATAA	Not met
ACTTCTTA	Not met
AAGTTTAT	Met
ACTTTCTA	Met
CTTACGCC	Not met
GGGTACAA	Not met
ATAAATAG	Not met
GAAAATTA	Met
CAACCCCA	Met
ACTTTCTC	Not met
CCTGCATC	Not met
AACTGTGA	Not met
TCGAAAGA	Not met
AGATGAAT	Not met
CGCGACCG	Not met
ACTTTCGA	Not met
CAAAATTA	Not met
GATAATAA	Not met
GATAATAC	Met
GTGTATTA	Met
CGGTATAA	Not met
AGTTTATA	Met
GAACTATC	Not met
GCTCTCTA	Not met
ATAAATAC	Met
CATATGCG	Not met
ATTAATAC	Met
ACGGACAA	Not met
CCGATTGA	Not met
AGGTATAA	Not met
GGGGTATA	Met
GAAATTTC	Met
ATCTCTGC	Not met
ACCTTTCC	Not met
CATGTCGA	Not met
CGGCAAAG	Not met
GGAAATTA	Met
GGACCAGA	Not met
CTGTATTA	Not met
GACTTCAC	Not met
ATTAATGC	Not met
ACTTTCTG	Not met
CCTTTATA	Not met
CTTAATGC	Met
ATAAACAT	Met
ATTAATAG	Not met
CCTGTTTA	Not met
CGTTCTAC	Not met
TCGCGTCA	Not met
CCCGACAC	Not met

* * *

Tested on: 2Sb-muMax20 (muMax20 with two 1,3-bis(methyl)benzene Cys staples, A13C/A17C and Q88C/A92C, C-terminal Lys)
Assay: PBM 8-mer E-score (E-score (rank enrichment, -0.5 to 0.5)); higher = stronger preferential binding
Over roughly 33,000 sequences, “E-score (rank enrichment, -0.5 to 0.5)” has its median near -0.0028; the highest 2% begin near 0.23. The sample as a whole holds a higher share of the highest values than the screen did.
Overview of recorded PBM 8-mer E-score for various sequences
endpoint: PBM 8-mer E-score

residues	endpoint	observed-measurement
CCCCACCG	PBM 8-mer E-score	0.11
ACCCACCT	PBM 8-mer E-score	0.13
ACCACCCA	PBM 8-mer E-score	0.073
CCTTTTGC	PBM 8-mer E-score	-0.0513
TCCCACCA	PBM 8-mer E-score	-0.0255
GCCCACAC	PBM 8-mer E-score	0.0967
ATGGCCAG	PBM 8-mer E-score	0.113
ACCCACCC	PBM 8-mer E-score	0.417
CCCCACCA	PBM 8-mer E-score	0.162
AGGTAGCG	PBM 8-mer E-score	-0.0415
AATTACCC	PBM 8-mer E-score	0.286

* * *

System: 2Sb-muMax20 (muMax20 with two 1,3-bis(methyl)benzene Cys staples, A13C/A17C and Q88C/A92C, C-terminal Lys)
Assay: PBM 8-mer E-score (E-score (rank enrichment, -0.5 to 0.5)); higher = stronger preferential binding
Over roughly 33,000 sequences, “E-score (rank enrichment, -0.5 to 0.5)” has its median near -0.0028; the highest 2% begin near 0.23. The sample as a whole holds a higher share of the highest values than the screen did.
Overview of recorded PBM 8-mer E-score for various sequences
endpoint: PBM 8-mer E-score

residues	endpoint	observed-measurement
ACGAACTG	PBM 8-mer E-score	-0.134
ACACCGTA	PBM 8-mer E-score	0.0971
AATATTAG	PBM 8-mer E-score	0.178
GATATTAA	PBM 8-mer E-score	0.123
ACTATTAA	PBM 8-mer E-score	0.176
CAGCACGC	PBM 8-mer E-score	-0.176
TAATGCTA	PBM 8-mer E-score	0.231
CATATTAG	PBM 8-mer E-score	0.132
GTGATCAA	PBM 8-mer E-score	-0.00195
AGTATTAC	PBM 8-mer E-score	0.236
AGTATTAA	PBM 8-mer E-score	0.206

* * *

Test system: 2Sb-muMax20 (muMax20 with two 1,3-bis(methyl)benzene Cys staples, A13C/A17C and Q88C/A92C, C-terminal Lys)
Assay: PBM 8-mer E-score (E-score (rank enrichment, -0.5 to 0.5)); higher = stronger preferential binding
The full ranking holds about 33,000 sequences; the median of “E-score (rank enrichment, -0.5 to 0.5)” is about -0.0028, and the highest 2% start at about 0.23. The entries come from a sample that favours the highest values as a whole.
Could you label it rule met if measured PBM 8-mer E-score is 0.1 or higher, and rule not met otherwise?

residues	category
AATAATGG	rule met
AGTCGAAG	rule not met
ACTATAGC	rule not met
ACAAAATG	rule met
CCTATAGG	rule not met
GTCAATTA	rule not met
ACAAATGG	rule met
GGAGGTTA	rule not met
AACAATTG	rule met
ACAAAATA	rule met
CCTCTACA	rule not met
ACCCCAGC	rule met
CACCTATG	rule not met
ACTATAGG	rule not met
AAATACAT	rule met
ACCCATAG	rule not met
ATAGGCAG	rule met
AAGATGCA	rule met
AAGATGCT	rule not met
AGTTAGAA	rule not met
CCCCACAA	rule met
GCAGGAAA	rule not met
AACAATGC	rule met
CATGTACG	rule met
ATATCGAA	rule not met
ACGATCTG	rule not met
GCGTGGTA	rule not met
CGAGGCCC	rule not met
GAGATACA	rule not met
ACCTATAC	rule not met
ACGAAGAT	rule not met
CGGTAGCA	rule not met
ACGCATAT	rule met
ACCCGCCC	rule met
ACCCATAC	rule met
TCGAAGAA	rule not met
AACAATGG	rule not met
CTGAACTA	rule not met
AGCGACCG	rule not met
CCAAAACG	rule not met
CCCCGCCG	rule met
AGAAATAG	rule met
ACAAATGT	rule met
AGTATTTA	rule met
ACGCAGCA	rule not met
GAAGGAGA	rule met
GTGCACAC	rule not met
ATAAGGTC	rule met
GGTATTTA	rule met
ATCGTCCG	rule not met
ACCTATAA	rule not met
CTGATACA	rule not met
AGTGCATC	rule not met
ACGCCACA	rule met
ATGAACTA	rule met
TATCAAGA	rule met
ATATGGAA	rule not met
CCCCGCCA	rule met
AAATATAA	rule met
AAATATAT	rule met
AAATATAC	rule met
GCTGCGCA	rule not met
CCCCACAG	rule not met
CCGGTGGA	rule not met
ACGCTCTG	rule not met
CGTGGCAG	rule not met
AAATACAC	rule met
ATAAGGTA	rule met
ACAAAACC	rule met
GGCTCAAA	rule not met
CTCAATTA	rule not met
AATAATGC	rule met
CACCCATG	rule not met
ACCCATAT	rule met
AAGGTCTA	rule not met
ATCAATTA	rule met
ATAGGCAA	rule met
AGATCCCA	rule not met
CGTATTTA	rule met
CTGCACGC	rule not met
ACCTTCAC	rule not met
GAGATGCA	rule met
ATCAATTG	rule met
AATAATGT	rule met
CGCCCCGC	rule not met
GATAATTA	rule not met
ACTATAGT	rule met
ACTATAGA	rule met
TCATACAA	rule met
ACCTATAT	rule met
